Reported pKi, 5HT2B serotonin receptor (Homo sapiens).
pKi: −log10 of the molar value.
measured_quantity: pKi

>>> df
                                chem_smiles  recorded_measurement
0  O[C@@H]1[C@H](O)[C@@H]2C[C@@H]2[C@H]1n1ccc2c(NCCc3ccccc3)nc(C#Cc3ccccc3)nc21                  5.51

P = CCOC(=O)[C@@]12C[C@@H]1[C@@H](n1ccc3c(NC)nc(C#Cc4ccc(Cl)s4)nc31)[C@@H]1OC(C)(C)O[C@@H]12
Q = CCOC(=O)[C@@]12C[C@@H]1[C@@H](n1cnc3c(NC)nc(C#Cc4ccc(Cl)s4)cc31)[C@H](O)[C@@H]2O
(Q) Hi there! Just curious which has the higher pKi between P and Q . Your choice should be expressed through its label.
(A) Q
(Q: 5.75, P: 5.38)

====

target: rat brain benzodiazepine receptor; assay: PDSP binding, rat brain benzodiazepine receptor; settings: read-out: rat brain benzodiazepine receptor, Ki
measured_quantity: Ki (nM)
Please reply with the bare figure in nM and do not write the unit itself.

(Q) Can you share its Ki? I mean this compound: O[C@@H]1[C@H](O)[C@@H]2C[C@@H]2[C@H]1n1ccc2c(NC(C3CC3)C3CC3)nc(C#Cc3ccc(Br)s3)nc21
(A) 118

====

Target chain: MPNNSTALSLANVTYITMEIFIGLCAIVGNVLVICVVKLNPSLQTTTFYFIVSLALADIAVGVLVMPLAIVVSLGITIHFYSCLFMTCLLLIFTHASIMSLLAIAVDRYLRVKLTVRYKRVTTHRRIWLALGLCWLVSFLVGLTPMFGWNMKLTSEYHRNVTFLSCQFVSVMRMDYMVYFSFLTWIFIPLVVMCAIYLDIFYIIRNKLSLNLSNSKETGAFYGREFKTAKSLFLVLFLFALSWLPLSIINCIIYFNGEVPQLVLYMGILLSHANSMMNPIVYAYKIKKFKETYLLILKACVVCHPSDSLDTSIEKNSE
pKi: −log10 of the molar value.
measured_quantity: pKi

Recorded pKi, per entry:
>>> df
                                chem_smiles  measured_quantity  recorded_measurement
0  CNC(=O)[C@@]12C[C@@H]1[C@@H](n1cnc3c(NCCC(F)(F)F)nc(C#Cc4ccc(Cl)s4)nc31)[C@H](O)[C@@H]2O                pKi                  8.43
1  CNc1nc(C#Cc2ccc(Cl)s2)nc2c1ncn2[C@H]1[C@H](O)[C@H](O)[C@]2(C(=O)OCc3ccccc3)C[C@H]12                pKi                  8.11
2  CNc1nc(C#Cc2ccc(Cl)s2)nc2c1ncn2[C@H]1[C@H](O)[C@H](O)[C@]2(C(=O)OCCC3CCCCC3)C[C@H]12                pKi                  6.48
3  CNc1nc(C#Cc2ccc(Cl)s2)nc2c1ncn2[C@H]1[C@H](O)[C@H](O)[C@]2(C(=O)OCCCc3ccccc3)C[C@H]12                pKi                  6.88

A = O[C@@H]1[C@H](O)[C@@H]2C[C@@H]2[C@H]1n1ccc2c(NC(C3CC3)C3CC3)nc(C#Cc3ccccc3)nc21
B = CNC(=O)[C@@]12C[C@@H]1[C@@H](n1cnc3c(NCCCO)nc(C#Cc4ccc(Cl)s4)nc31)[C@H](O)[C@@H]2O
(Q) Which entry shows the lesser value of pKi here, A or B ? Select an item and report its label.
(A) A
(A: 6.75, B: 8.69)

====

target: hA2AAR (Homo sapiens, UniProt P29274); test: hA2AAR binding; settings: read-out: binding inhibition at hA2AAR (% at 10 μM)
Sequence (P29274 whole entry): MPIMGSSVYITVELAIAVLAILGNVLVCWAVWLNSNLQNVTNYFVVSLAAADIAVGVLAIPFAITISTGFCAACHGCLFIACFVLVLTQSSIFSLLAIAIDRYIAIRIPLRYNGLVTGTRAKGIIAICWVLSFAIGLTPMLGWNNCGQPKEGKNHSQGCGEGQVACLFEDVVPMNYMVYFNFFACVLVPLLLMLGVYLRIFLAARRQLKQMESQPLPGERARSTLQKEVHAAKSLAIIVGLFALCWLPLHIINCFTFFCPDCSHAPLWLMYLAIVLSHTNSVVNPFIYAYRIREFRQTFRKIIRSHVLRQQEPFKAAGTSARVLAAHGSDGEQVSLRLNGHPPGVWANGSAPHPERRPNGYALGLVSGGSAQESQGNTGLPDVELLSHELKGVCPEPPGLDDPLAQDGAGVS
measured_quantity: inhibition at 10 µM (%)

>>> df
                                chem_smiles  recorded_measurement
0  CCOC(=O)[C@@]12C[C@@H]1[C@@H](n1cnc3c(NC)cc(C#Cc4ccc(Cl)s4)nc31)[C@H](O)[C@@H]2O                    16
1  CCOC(=O)[C@@]12C[C@@H]1[C@@H](n1ccc3c(NCC4CC4)nc(C#Cc4ccccc4)nc31)[C@H](O)[C@@H]2O                    20
2  CCOC(=O)[C@@]12C[C@@H]1[C@@H](n1ccc3c(NC)nc(C#Cc4ccccc4)nc31)[C@H](O)[C@@H]2O                    22

====

assay: CACO-2 cell permeability; format: in vitro ADME; conditions: human, Caco-2, pH 7.4
measured_quantity: Papp A→B at 120 min, 10 µM (×10⁻⁶ cm/s)
Provide the reading as a plain figure in ×10⁻⁶ cm/s.

(Q) Requested field: Papp A→B at 120 min, 10 µM. Item: CCOC(=O)[C@@]12C[C@@H]1[C@@H](n1ccc3c(NC)nc(C#Cc4ccc(Cl)s4)nc31)[C@H](O)[C@@H]2O [compound 28]
(A) 1.42

====

pKi: −log10 of the molar value.
Quick record: pKi, UniProtKB P16257.
Sequence (P16257 whole entry): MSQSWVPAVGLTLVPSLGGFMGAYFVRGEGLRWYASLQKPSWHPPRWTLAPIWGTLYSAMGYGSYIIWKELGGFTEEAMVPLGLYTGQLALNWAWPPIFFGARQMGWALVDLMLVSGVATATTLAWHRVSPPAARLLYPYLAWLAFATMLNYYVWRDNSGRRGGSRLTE
measured_quantity: pKi

# count of solved cases: 2
In [3]: df
Out[3]:
                                   compound       system_name  measured_quantity  recorded_measurement
0  CCOC(=O)[C@@]12C[C@@H]1[C@@H](n1ccc3c(NC)nc(C#Cc4ccc(Cl)s4)nc31)[C@H](O)[C@@H]2O [compound 28]  UniProtKB P16257                pKi                  6.06
1  CCCNc1nc(C#Cc2ccc(Cl)s2)nc2c1ncn2[C@H]1[C@H](O)[C@H](O)[C@]2(C(=O)NC)C[C@H]12 [compound 18]  UniProtKB P16257                pKi                  5.88

A = CNc1nc(C#Cc2ccc(Cl)s2)nc2c1ncn2[C@H]1[C@H](O)[C@H](O)[C@]2(C(=O)OCCCc3ccccc3)C[C@H]12 [compound 37]
B = CCOC(=O)[C@@]12C[C@@H]1[C@@H](n1cnc3c(NC)nc(C#Cc4ccc(Cl)s4)cc31)[C@H](O)[C@@H]2O [compound 27]
(Q) Compare the recorded pKi of A and B ; state which is larger. Your answer should be the label attached to the chosen record.
(A) A
(A: 5.96, B: 5.47)

====

biological target: hDAT (Homo sapiens, UniProt Q01959); test: Radioligand binding at DAT
Sequence (Q01959 whole entry): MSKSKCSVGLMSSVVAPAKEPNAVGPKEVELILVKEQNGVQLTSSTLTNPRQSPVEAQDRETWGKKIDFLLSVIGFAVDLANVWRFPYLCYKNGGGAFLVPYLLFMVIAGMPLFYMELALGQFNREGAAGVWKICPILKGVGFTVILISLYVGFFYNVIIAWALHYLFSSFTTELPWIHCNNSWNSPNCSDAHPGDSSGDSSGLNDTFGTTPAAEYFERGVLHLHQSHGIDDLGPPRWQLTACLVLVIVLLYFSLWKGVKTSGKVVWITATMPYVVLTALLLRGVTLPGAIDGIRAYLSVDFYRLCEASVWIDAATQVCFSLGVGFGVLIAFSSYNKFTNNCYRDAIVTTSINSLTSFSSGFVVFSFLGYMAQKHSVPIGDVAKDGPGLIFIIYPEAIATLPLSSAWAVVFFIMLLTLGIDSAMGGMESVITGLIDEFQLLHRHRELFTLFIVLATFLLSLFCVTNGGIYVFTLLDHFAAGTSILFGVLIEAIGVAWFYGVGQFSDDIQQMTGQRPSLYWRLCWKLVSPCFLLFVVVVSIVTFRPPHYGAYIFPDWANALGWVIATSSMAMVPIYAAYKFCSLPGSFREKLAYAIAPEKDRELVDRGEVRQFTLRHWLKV
pEC50: −log10 of the molar value.
Recorded pEC50, one value per entry.

In [3]: df
Out[3]:
                                chem_smiles  measured_quantity  recorded_measurement
0  CCOC(=O)[C@@]12C[C@@H]1[C@@H](n1ccc3c(NC)nc(C#Cc4ccc(Cl)s4)nc31)[C@H](O)[C@@H]2O              pEC50                < 6.00

From here, focus on the item given below.
(Q) pEC50 lookup needed for CCOC(=O)[C@@]12C[C@@H]1[C@@H](n1ccc3c(NC)nc(C#Cc4ccc(Br)s4)nc31)[C@H](O)[C@@H]2O , thanks.
(A) < 6.00

====

biological target: KOR (Homo sapiens); assay: biochemical; format: binding; conditions: KOR, Ki, [3H]U69593; mean ± SEM, N = 2–4
Sequence (P41145 whole entry): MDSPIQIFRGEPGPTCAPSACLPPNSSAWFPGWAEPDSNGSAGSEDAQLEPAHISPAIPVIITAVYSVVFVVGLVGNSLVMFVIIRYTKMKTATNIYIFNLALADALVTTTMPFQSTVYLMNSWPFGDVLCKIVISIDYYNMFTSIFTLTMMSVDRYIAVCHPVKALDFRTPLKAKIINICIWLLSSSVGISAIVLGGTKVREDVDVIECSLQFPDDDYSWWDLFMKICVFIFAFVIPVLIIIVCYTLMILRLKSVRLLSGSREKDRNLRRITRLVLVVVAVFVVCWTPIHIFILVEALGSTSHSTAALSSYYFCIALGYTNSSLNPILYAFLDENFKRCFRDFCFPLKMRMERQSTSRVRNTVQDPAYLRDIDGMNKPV
measured_quantity: Ki (nM)

Examples from the recorded data:
>>> df
                                   compound         system_name  measured_quantity  recorded_measurement
0  CCOC(=O)[C@@]12C[C@@H]1[C@@H](n1ccc3c(NCCc4ccccc4)nc(C#Cc4ccccc4)nc31)[C@H](O)[C@@H]2O [compound 43]  KOR (Homo sapiens)                 Ki                   207
1  CCOC(=O)[C@@]12C[C@@H]1[C@@H](n1cnc3c(NC)nc(C#Cc4ccc(Cl)s4)nc31)[C@H](O)[C@@H]2O [compound 24]  KOR (Homo sapiens)                 Ki                   396
2  CCCCOC(=O)[C@@]12C[C@@H]1[C@@H](n1cnc3c(NC)nc(C#Cc4ccc(Cl)s4)nc31)[C@H](O)[C@@H]2O [compound 32]  KOR (Homo sapiens)                 Ki                  1210

A = CNc1nc(C#Cc2ccccc2)nc2c1ccn2[C@H]1[C@H](O)[C@H](O)[C@@H]2C[C@@H]21 [compound 54]
B = CNc1nc(C#Cc2ccc(Cl)s2)nc2c1ncn2[C@H]1[C@H](O)[C@H](O)[C@]2(C(=O)OCc3ccccc3)C[C@H]12 [compound 35]
(Q) Lab note: record which item had the higher Ki, A or B . Label of pick, please.
(A) A
(A: 1120 nM, B: 629 nM)
